Each entry below carries its reported EC50.
# system-tested: UniProt:P21917
# assay: Agonistic activity in G protein dependent pathway of dopamine D4 receptor (aequorin intracellular calcium luminescence, FDSS)
# recorded-conditions: concentration required to achieve a 50% response of Emax; CHO-K1 or HEK293 cells transfected with D4 receptor
API: value field is a number in nM; no unit string.

Below, each entry is followed by its recorded EC50 result.
compound	system-tested	reported-endpoint	endpoint-value
COc1ccccc1-c1cc2n(n1)CCN(Cc1ccc(F)c(C#N)c1)C2	UniProt:P21917	EC50	60
FC(F)(F)c1c(-c2ccccn2)nn2c1CN(Cc1ccccc1)CC2	UniProt:P21917	EC50	92
Cc1cccnc1-c1cc2n(n1)CCN(Cc1cnc3c(c1)CCCC3)C2	UniProt:P21917	EC50	51
Cc1cccnc1-c1cc2n(n1)CCN(Cc1nc(C)n3ccccc13)C2	UniProt:P21917	EC50	78
Cc1cccnc1-c1cc2n(n1)CCN(Cc1cnc(C(F)(F)F)nc1)C2	UniProt:P21917	EC50	84
Cc1cccnc1-c1nn2c(c1C)CN(Cc1ccccc1)CC2	UniProt:P21917	EC50	30
COc1ccccc1-c1cc2n(n1)CCN(Cc1ccc(C)nc1N)C2	UniProt:P21917	EC50	138
Cc1c(-c2ccccn2)nn2c1CN(Cc1cn3c(n1)CCCC3)CC2	UniProt:P21917	EC50	42

Prompt: GET /values?readout=EC50&system=UniProt:P21917&item= CN1Cc2ccc(CN3CCn4nc(-c5ccccn5)cc4C3)cc2C1
Completion: 25

Prompt: GET /values?readout=EC50&system=UniProt:P21917&item= Cc1ccc(CN2CCn3nc(-c4ncccc4F)c(C)c3C2)nc1
Completion: 23

Prompt: GET /values?readout=EC50&system=UniProt:P21917&item= Cc1cccnc1-c1cc2n(n1)CCN(Cc1nn(C)c3ccccc13)C2
Completion: 65

----------
Each entry below carries its reported pEC50.
# system-tested: human brain-derived dopamine D4 receptor (Homo sapiens)
# Sequence (P21917 1-419): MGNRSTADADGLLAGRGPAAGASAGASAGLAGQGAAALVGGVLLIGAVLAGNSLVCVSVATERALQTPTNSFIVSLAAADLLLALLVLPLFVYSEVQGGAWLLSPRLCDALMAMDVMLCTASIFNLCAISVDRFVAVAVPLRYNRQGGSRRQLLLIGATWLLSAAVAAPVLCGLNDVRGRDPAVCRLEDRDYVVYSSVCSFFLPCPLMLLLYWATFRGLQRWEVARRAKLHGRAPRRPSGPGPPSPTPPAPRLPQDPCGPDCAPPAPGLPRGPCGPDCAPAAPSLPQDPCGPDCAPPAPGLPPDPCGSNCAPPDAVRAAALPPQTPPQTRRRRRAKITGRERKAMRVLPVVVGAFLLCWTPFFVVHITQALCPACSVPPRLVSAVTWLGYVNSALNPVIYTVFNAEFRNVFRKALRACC
# assay: Agonistic activity in G protein dependent pathway of dopamine D4 receptor (aequorin intracellular calcium luminescence, FDSS)
# recorded-conditions: concentration required to achieve a 50% response of Emax; CHO-K1 or HEK293 cells transfected with D4 receptor
// pEC50 here means minus log10 of the molar concentration (mol/L)

Below, each entry is followed by its recorded pEC50 result.
compound	system-tested	pEC50
Cc1cccnc1-c1cc2n(n1)CCN(Cc1c[nH]c3ccccc13)C2 [Example 147]	human brain-derived dopamine D4 receptor (Homo sapiens)	7.48
Cc1cccnc1-c1cc2n(n1)CCN(Cc1cc3ccccc3n1C)C2 [Example 146]	human brain-derived dopamine D4 receptor (Homo sapiens)	7.05
Cc1cccnc1-c1cc2n(n1)CCN(Cc1ccc(C(F)F)cc1)C2 [Example 80]	human brain-derived dopamine D4 receptor (Homo sapiens)	7.74
CC(C)c1ncc(CN2CCn3nc(-c4ncccc4F)cc3C2)cn1 [Example 204]	human brain-derived dopamine D4 receptor (Homo sapiens)	7.36
N#Cc1ccc(CN2CCn3nc(-c4ccccn4)cc3C2)cc1 [Example 29]	human brain-derived dopamine D4 receptor (Homo sapiens)	7.42

Prompt: Which pEC50 reading was recorded for the compound Cc1cnc(CN2CCn3nc(-c4ncccc4C)c(C)c3C2)cn1 [Example 119] ?
Completion: 6.84

Prompt: Which pEC50 reading was recorded for the compound c1ccc(CN2CCCn3nc(-c4ccccn4)cc3C2)cc1 [Example 8] ?
Completion: 6.98

Prompt: Which pEC50 reading was recorded for the compound Cc1cccnc1-c1cc2n(n1)CCN(Cc1ccc(C(F)(F)F)cc1F)C2 [Example 47] ?
Completion: 7.15

Prompt: Which pEC50 reading was recorded for the compound COc1ccccc1-c1cc2n(n1)CCN(Cc1cn3ccccc3n1)C2 [Example 17] ?
Completion: 7.60
